Reported IC50 values are given for each entry in this list.
Target: Kv1.3 (Homo sapiens, UniProt P22001)
Sequence (P22001 whole entry): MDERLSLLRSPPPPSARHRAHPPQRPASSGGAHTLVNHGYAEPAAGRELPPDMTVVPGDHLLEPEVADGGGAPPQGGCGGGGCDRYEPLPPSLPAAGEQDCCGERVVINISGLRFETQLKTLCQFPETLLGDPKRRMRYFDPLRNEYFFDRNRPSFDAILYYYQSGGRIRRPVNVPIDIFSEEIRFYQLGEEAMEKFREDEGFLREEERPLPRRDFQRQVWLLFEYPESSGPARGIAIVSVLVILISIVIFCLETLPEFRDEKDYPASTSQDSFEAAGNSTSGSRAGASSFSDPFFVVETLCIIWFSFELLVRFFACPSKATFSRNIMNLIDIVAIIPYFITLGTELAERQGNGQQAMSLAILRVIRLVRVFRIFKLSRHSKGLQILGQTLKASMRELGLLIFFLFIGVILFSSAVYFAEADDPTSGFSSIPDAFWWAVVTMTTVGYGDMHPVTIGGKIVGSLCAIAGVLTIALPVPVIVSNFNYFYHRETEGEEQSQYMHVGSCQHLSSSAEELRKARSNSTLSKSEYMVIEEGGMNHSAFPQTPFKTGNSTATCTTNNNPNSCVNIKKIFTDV
Assay: Electrophysiology: planar patch-clamp of Kv1.3 currents, IC50 from steady state current amplitude
Conditions: Kv1.3 electrophysiology, results according to Method D1, read-out: IC50 (Kv1.3 ephys steady state)

# input Recorded IC50 for CCC(c1ccc(S(C)(=O)=O)cc1)N(Cc1ccc(C(F)(F)F)nc1)C(=O)C1CC1c1ccc(F)cc1F (centres unmarked) [Example 129] , please?
# output 50 to 200 nM

# input Record: CCS(=O)(=O)c1cccc(C(C2CC2)N(CC(F)(F)c2ccccn2)C(=O)C2CC2c2ccc(F)cc2)c1 (centres unmarked)
# output 50 to 200 nM

# input Record: C[C@H](CC(=O)N(Cc1ccccn1)C(c1ccc(Cl)cc1)C1CC1)c1ccc(F)cc1 (single isomer, unassigned)
# output < 50 nM

# input Record: CCS(=O)(=O)c1cccc(C(C2CC2)N(Cc2ccc(F)cn2)C(=O)C2CC2c2ccc(OC(F)F)cc2)c1 (centres unmarked)
# output 50 to 200 nM

# input Record: O=C(C1CC1c1ccc(F)cc1)N(Cc1ccc(F)cn1)C(c1ccc(OC(F)F)cc1)C1CNC1 (centres unmarked) [Example 152]
# output 200 to 1000 nM

# input Record: CCS(=O)(=O)c1cccc(C(C2CC2)N(Cc2ccc(F)cn2)C(=O)C2CC2c2ccc(F)cc2F)c1 (centres unmarked) [Example 193]
# output 50 to 200 nM

# input Record: CCC(c1ccc(S(=O)(=O)C(C)C)cc1)N(Cc1cccnn1)C(=O)C1CC1c1ccc(F)cc1 (centres unmarked)
# output 200 to 1000 nM

# input Record: O=C(C1CC1c1cccc(C(F)(F)F)c1)N(Cc1cccnn1)C(c1ccc(OC(F)F)cc1)C1CC1 (centres unmarked)
# output 200 to 1000 nM

FYI, the data here is from patent US9493451B2.
